Entries and their solubility (g/100 g solution)
- experiment.description: xn = mol fraction of the nth substance listed, in the solute-free solvent
- measurement.conditions: 318.15 K; x2 = 0.3103
// keep it numeric: no unit symbol after the value

Field: example entries. Status: answers known.
Nc1cccc(S(=O)(=O)c2cccc(N)c2)c1 + CC(C)O + O	1.84
CN1CCN(C2=Nc3cc(Cl)ccc3Nc3ccccc32)CC1 + CC(C)O + O	1.42
Nc1nccnc1Cl + CC(C)O + O	1.38
Cc1[nH]c(=O)c(C#N)cc1-c1ccncc1 + CC(C)O + O	0.019

[Q] Report measured solubility (g/100 g solution); entry is c1ccc2[nH]c(-c3cscn3)nc2c1 + CCCO + O
[A] 0.525

[Q] Report measured solubility (g/100 g solution); entry is c1ccc2[nH]c(-c3cscn3)nc2c1 + CC(C)O + O
[A] 0.27

###

- experiment.description: xn = mol fraction of the nth substance listed, in the solute-free solvent
- measurement.conditions: 288.15 K; x2 = 0.3103
Condition met means recorded solubility (g/100 g solution) is 0.5 or above; Condition not met means it is below 0.5.

[Q] // inclusive: solubility (g/100 g solution) at least 0.5? input: CN1CCN(C2=Nc3cc(Cl)ccc3Nc3ccccc32)CC1 + CC(C)O + O
[A] Condition met

[Q] // inclusive: solubility (g/100 g solution) at least 0.5? input: Cc1[nH]c(=O)c(C#N)cc1-c1ccncc1 + CC(C)O + O
[A] Condition not met

###

- experiment.description: xn = mol fraction of the nth substance listed, in the solute-free solvent
- measurement.conditions: 313.15 K; x2 = 0.4
assay.readout: solubility (g/100 g solution)
// keep it numeric: no unit symbol after the value

[Q] Report measured solubility (g/100 g solution); entry is Cc1ncc(C[n+]2csc(CCO)c2C)c(N)n1.O=[N+]([O-])[O-] + O + CC(C)O
[A] 0.385

###

- experiment.description: xn = mol fraction of the nth substance listed, in the solute-free solvent
- measurement.conditions: 283.15 K; x2 = 0.2812
Entries and their solubility (g/100 g solution)
// keep it numeric: no unit symbol after the value

Field: example entries. Status: answers known.
Nc1cccc(S(=O)(=O)c2cccc(N)c2)c1 + CCO + O	0.455
Cc1[nH]c(=O)c(C#N)cc1-c1ccncc1 + CCO + O	0.00239
CC(C)OC(=O)C(C)NP(=O)(OCC1OC(n2ccc(=O)[nH]c2=O)C(C)(F)C1O)Oc1ccccc1 (centres undefined) + CCO + O	9.76

Please examine the following record next.
[Q] Report measured solubility (g/100 g solution); entry is COc1cc2c(cc1OC)-c1cc3ccc(OC)c(OC)c3c[n+]1CC2.[Cl-] + CCO + O
[A] 1.57

###

- experiment.description: xn = mol fraction of the nth substance listed, in the solute-free solvent
- measurement.conditions: 318.15 K; x2 = 0.7
MET means recorded solubility (g/100 g solution) is 20 or above; NOT MET means it is below 20.

[Q] // inclusive: solubility (g/100 g solution) at least 20? input: S=c1[nH]ncs1 + CO + O
[A] MET

###

- experiment.description: xn = mol fraction of the nth substance listed, in the solute-free solvent
- measurement.conditions: 293.15 K; x2 = 0.5
Entries and their solubility (g/100 g solution)
// keep it numeric: no unit symbol after the value

Field: example entries. Status: answers known.
CC(N)C(=O)O (stereo unspecified) + O + CC(C)=O	0.0791
Cc1ncc(C[n+]2csc(CCO)c2C)c(N)n1.O=[N+]([O-])[O-] + O + CO	1.47
S=c1[nH]ncs1 + CC(C)=O + O	25.6
S=c1[nH]ncs1 + CCCO + O	11.7
CC(N)C(=O)O (stereo unspecified) + O + CC(C)O	0.223

Please examine the following record next.
[Q] Report measured solubility (g/100 g solution); entry is CC(N)C(=O)O (stereo unspecified) + O + CO
[A] 0.899

###

- experiment.description: xn = mol fraction of the nth substance listed, in the solute-free solvent
- measurement.conditions: 313.15 K; x2 = 0.1666
assay.readout: solubility (g/100 g solution)
// keep it numeric: no unit symbol after the value

Nc1nccnc1Cl + CC(C)O + O	0.729

[Q] Report measured solubility (g/100 g solution); entry is Nc1cccc(S(=O)(=O)c2cccc(N)c2)c1 + CC(C)O + O
[A] 1.05

[Q] Report measured solubility (g/100 g solution); entry is Cc1[nH]c(=O)c(C#N)cc1-c1ccncc1 + CC(C)O + O
[A] 0.0102

[Q] Report measured solubility (g/100 g solution); entry is c1ccc2[nH]c(-c3cscn3)nc2c1 + CCCO + O
[A] 0.188

[Q] Report measured solubility (g/100 g solution); entry is c1ccc2[nH]c(-c3cscn3)nc2c1 + CC(C)O + O
[A] 0.113

[Q] Report measured solubility (g/100 g solution); entry is CN1CCN(C2=Nc3cc(Cl)ccc3Nc3ccccc32)CC1 + CC(C)O + O
[A] 0.472

###

- experiment.description: xn = mol fraction of the nth substance listed, in the solute-free solvent
- measurement.conditions: 293.15 K; x2 = 0.835
assay.readout: solubility (g/100 g solution)
// keep it numeric: no unit symbol after the value

c1ccc2[nH]c(-c3cscn3)nc2c1 + CO + O	0.815
COC(=O)C(C)(C)N=NC(C)(C)C(=O)OC + CO + O	91.5
Nc1cccc(S(=O)(=O)c2cccc(N)c2)c1 + CO + O	2.83

[Q] Report measured solubility (g/100 g solution); entry is Nc1nccnc1Cl + CO + O
[A] 1.95

###

- experiment.description: xn = mol fraction of the nth substance listed, in the solute-free solvent
- measurement.conditions: 313.15 K; x2 = 0.4772
assay.readout: solubility (g/100 g solution)
// keep it numeric: no unit symbol after the value

COc1cc2c(cc1OC)-c1cc3ccc(OC)c(OC)c3c[n+]1CC2.[Cl-] + CCO + O	5.95
Cc1[nH]c(=O)c(C#N)cc1-c1ccncc1 + CCO + O	0.00921
Nc1cccc(S(=O)(=O)c2cccc(N)c2)c1 + CCO + O	2.28

Please examine the following record next.
[Q] Report measured solubility (g/100 g solution); entry is CC(C)OC(=O)C(C)NP(=O)(OCC1OC(n2ccc(=O)[nH]c2=O)C(C)(F)C1O)Oc1ccccc1 (centres undefined) + CCO + O
[A] 36.8

###

- experiment.description: xn = mol fraction of the nth substance listed, in the solute-free solvent
- measurement.conditions: 303.15 K; x2 = 0.3
YES means recorded solubility (g/100 g solution) is 0.1 or above; NO means it is below 0.1.

Some entries whose results are on file:
CC(N)C(=O)O (configuration not stated) + O + CC(C)O	NO
CCCCCOC(=O)Nc1nc(=O)n(C2OC(C)C(O)C2O)cc1F (configuration not stated) + CCOC(C)=O + CCCCCCC	NO
CC(N)C(=O)O (configuration not stated) + O + CC(C)=O	NO

[Q] // inclusive: solubility (g/100 g solution) at least 0.1? input: Cc1ncc(C[n+]2csc(CCO)c2C)c(N)n1.O=[N+]([O-])[O-] + O + CO
[A] YES

[Q] // inclusive: solubility (g/100 g solution) at least 0.1? input: OCCN(CCO)c1nc(N2CCCCC2)c2nc(N(CCO)CCO)nc(N3CCCCC3)c2n1 + CCO + O
[A] YES

[Q] // inclusive: solubility (g/100 g solution) at least 0.1? input: OCCN(CCO)c1nc(N2CCCCC2)c2nc(N(CCO)CCO)nc(N3CCCCC3)c2n1 + CO + O
[A] YES

[Q] // inclusive: solubility (g/100 g solution) at least 0.1? input: OCCN(CCO)c1nc(N2CCCCC2)c2nc(N(CCO)CCO)nc(N3CCCCC3)c2n1 + CC(C)O + O
[A] YES

[Q] // inclusive: solubility (g/100 g solution) at least 0.1? input: CC(N)C(=O)O (configuration not stated) + O + CCCO
[A] NO

###

- experiment.description: xn = mol fraction of the nth substance listed, in the solute-free solvent
- measurement.conditions: 298.15 K; x2 = 0.2068
assay.readout: solubility (g/100 g solution)
// keep it numeric: no unit symbol after the value

Field: example entries. Status: answers known.
CC(C)OC(=O)C(C)NP(=O)(OCC1OC(n2ccc(=O)[nH]c2=O)C(C)(F)C1O)Oc1ccccc1 (centres undefined) + CCO + O	14.8
COc1cc2c(cc1OC)-c1cc3ccc(OC)c(OC)c3c[n+]1CC2.[Cl-] + CCO + O	2.68
Cc1[nH]c(=O)c(C#N)cc1-c1ccncc1 + CCO + O	0.00303

[Q] Report measured solubility (g/100 g solution); entry is Nc1cccc(S(=O)(=O)c2cccc(N)c2)c1 + CCO + O
[A] 0.646

Cited source: the CheMixHub drug solubility set
